Source listed as PubChem BioAssay (EPA / NIEHS).

# assay explanation: BSK_3C_TissueFactor: BioMAP Diversity Plus: 3C Assay for Tissue Factor Biomarker Activity (AID 2282997)
# measurement setup: BioMAP 3C HUVEC, tissue factor biomarker readout; actives raise or lower the signal
Calls of active or inactive are those of the source. How the source made its calls: active means hit-call score of the fitted dose curve at least 0.9, where 1 is the maximum; inactive means score below 0.9.
Form entry, call: pick from active, inactive

CC(C)(C)C(O)/C(=C\c1ccc(Cl)cc1Cl)n1cncn1 (centres undefined) ... active
O=[N+]([O-])c1c(Cl)c(Cl)c(Cl)c(Cl)c1Cl ... inactive
Oc1cc(Cl)ccc1Oc1ccc(Cl)cc1Cl ... active

Input: # lookup: test call for "CCCN(CCOc1c(Cl)cc(Cl)cc1Cl)C(=O)n1ccnc1"
Output: inactive

Input: Please indicate how the test categorized "CCS(=O)(=O)c1cccnc1S(=O)(=O)NC(=O)Nc1nc(OC)cc(OC)n1" .
Output: inactive

Input: // param item: "COC(=O)c1ccccc1S(=O)(=O)NC(=O)N(C)c1nc(C)nc(OC)n1" ; yields the recorded call
Output: inactive

Input: Hey, what did the test say about "CCC(C)(C)C(=O)OC1=C(c2ccc(Cl)cc2Cl)C(=O)OC12CCCCC2" ?
Output: active

Input: For this compound, state the assay outcome: "Cc1cc(C)nc(NC(=O)NS(=O)(=O)c2ccccc2C(=O)OC2COC2)n1"
Output: inactive

Input: Test call, this compound: "CCCN(CCC)c1c([N+](=O)[O-])cc(C(F)(F)F)cc1[N+](=O)[O-]"
Output: inactive

Input: Called result for "CN1CSC(=S)N(C)C1"
Output: inactive

Input: // param item: O=S1OCC2C(CO1)C1(Cl)C(Cl)=C(Cl)C2(Cl)C1(Cl)Cl (centres undefined) ; yields the recorded call
Output: active

Input: Could you check what this test reported for "N#Cc1c(Cl)c(Cl)c(Cl)c(C#N)c1Cl" ?
Output: active

Input: Can you look up the reported call for "Oc1ccc(Cl)cc1Cc1ccccc1" for me?
Output: active

Input: Per the assay record, what outcome was assigned to "O=[N+]([O-])/N=C1\NCCN1Cc1ccc(Cl)nc1" ?
Output: inactive

Input: Would you mind telling me which call this test gave "Cc1[nH]c(=O)n(C(C)(C)C)c(=O)c1Cl" ?
Output: inactive

Input: Please let me know the test result on file for "CC(C)N(C(=O)COc1nnc(C(F)(F)F)s1)c1ccc(F)cc1" .
Output: inactive

Input: Name the outcome recorded for CCOC1Oc2ccc(OS(C)(=O)=O)cc2C1(C)C (centres undefined) in the assay.
Output: inactive

Input: Hello, I am checking results. What call was entered for "O=C(O)CCCOc1ccc(Cl)cc1Cl" ?
Output: inactive

Input: Give the logged outcome of this assay for the following compound: "O=C(O)C(F)(F)C(F)(F)C(F)(F)C(F)(F)C(F)(F)C(F)(F)C(F)(F)F"
Output: inactive
